- tested.system: bovine trypsin (Bos taurus)
- Sequence (P00760 24-246): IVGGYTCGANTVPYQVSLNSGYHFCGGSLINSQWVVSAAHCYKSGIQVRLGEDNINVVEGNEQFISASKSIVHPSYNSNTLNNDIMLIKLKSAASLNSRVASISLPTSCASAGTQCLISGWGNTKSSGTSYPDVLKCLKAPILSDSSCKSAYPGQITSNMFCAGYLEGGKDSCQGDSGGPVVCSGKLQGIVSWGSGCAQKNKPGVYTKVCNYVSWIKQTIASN
- run.description: Trypsin inhibitory activity of peptides (BApNA hydrolysis, OD405; IC50, Ki, residual activity)
- Format: biochemical
- assay.conditions: peptide 0.488 μM
Bridge positions count the residues as written; N and C are the ends. Peptide text beside a SMILES is read from it.
Residual trypsin activity reference

compound: CC[C@H](C)[C@@H]1NC(=O)[C@@H]2CCCN2C(=O)[C@@H]2CCCN2C(=O)[C@H]([C@@H](C)CC)NC(=O)[C@H](CO)NC(=O)[C@H](CCCCN)NC(=O)[C@H]([C@@H](C)O)NC(=O)[C@H](C)NC(=O)[C@H](CCCNC(=N)N)NC(=O)CNC(=O)[C@@H](N)CSSC[C@@H](C(=O)N[C@@H](Cc2ccccc2)C(=O)N2CCC[C@H]2C(=O)N[C@@H](CC(=O)O)C(=O)O)NC1=O [BT5] (H-CGRATKSIPPICFPD-OH; disulfide 1-12; N-terminus and C-terminus assumed)
result.unit: %
Residual trypsin activity: 3.0
--
compound: CC[C@H](C)[C@@H]1NC(=O)[C@@H]2CCCN2C(=O)[C@@H]2CCCN2C(=O)[C@H]([C@@H](C)CC)NC(=O)[C@H](CO)NC(=O)[C@H](CCCCN)NC(=O)[C@H]([C@@H](C)O)NC(=O)CNC(=O)[C@H](CCCCN)NC(=O)[C@H](C)NC(=O)CNC(=O)[C@@H](N)CSSC[C@@H](C(=O)N[C@@H](Cc2ccccc2)C(=O)N2CCC[C@H]2C(=O)N[C@@H](CC(=O)O)C(=O)O)NC1=O [BT2] (H-CGAKGTKSIPPICFPD-OH; disulfide 1-13; N-terminus and C-terminus assumed)
result.unit: %
Residual trypsin activity: 94.6
--
compound: CC[C@H](C)[C@@H]1NC(=O)[C@@H]2CCCN2C(=O)[C@@H]2CCCN2C(=O)[C@H]([C@@H](C)CC)NC(=O)[C@H](CO)NC(=O)[C@H](CCCNC(=N)N)NC(=O)[C@H]([C@@H](C)O)NC(=O)[C@H](C)NC(=O)[C@H](CCCNC(=N)N)NC(=O)CNC(=O)[C@@H](N)CSSC[C@@H](C(=O)N[C@@H](Cc2ccccc2)C(=O)O)NC1=O [BT17] (H-CGRATRSIPPICF-OH; disulfide 1-12; C-terminus assumed)
result.unit: %
Residual trypsin activity: 61.9
--
compound: CC[C@H](C)[C@@H]1NC(=O)[C@@H]2CCCN2C(=O)[C@@H]2CCCN2C(=O)[C@H]([C@@H](C)CC)NC(=O)[C@H](CO)NC(=O)[C@H](CCCCN)NC(=O)[C@H]([C@@H](C)O)NC(=O)[C@H](C)NC(=O)[C@H](CO)NC(=O)CNC(=O)[C@@H](N)CSSC[C@@H](C(=O)N[C@@H](Cc2ccccc2)C(=O)N2CCC[C@H]2C(=O)N[C@@H](CC(=O)O)C(=O)O)NC1=O [BT6] (H-CGSATKSIPPICFPD-OH; disulfide 1-12; N-terminus and C-terminus assumed)
result.unit: %
Residual trypsin activity: 25.9
--
compound: CC[C@H](C)[C@@H]1NC(=O)[C@@H]2CCCN2C(=O)[C@@H]2CCCN2C(=O)[C@H]([C@@H](C)CC)NC(=O)[C@H](CO)NC(=O)[C@H](CCCCN)NC(=O)[C@H]([C@@H](C)O)NC(=O)[C@H](C)NC(=O)[C@H](CCCCN)NC(=O)[C@H](C)NC(=O)CNC(=O)[C@@H](N)CSSC[C@@H](C(=O)N[C@@H](Cc2ccccc2)C(=O)N2CCC[C@H]2C(=O)N[C@@H](CC(=O)O)C(=O)O)NC1=O [BT3] (H-CGAKATKSIPPICFPD-OH; disulfide 1-13; N-terminus and C-terminus assumed)
result.unit: %
Residual trypsin activity: 67.2
--
compound: CC[C@H](C)[C@@H]1NC(=O)[C@@H]2CCCN2C(=O)[C@@H]2CCCN2C(=O)[C@H]([C@@H](C)CC)NC(=O)[C@H](CO)NC(=O)[C@H](CCCCN)NC(=O)[C@H]([C@@H](C)O)NC(=O)[C@H](C)NC(=O)[C@H](CCCNC(=N)N)NC(=O)CNC(=O)[C@@H](N)CSSC[C@@H](C(=O)O)NC(=O)[C@H](Cc2ccccc2)NC(=O)[C@H](C)NC1=O [BT11] (H-CGRATKSIPPIAFC-OH; disulfide 1-14; N-terminus and C-terminus assumed)
result.unit: %
Residual trypsin activity: 100.2
